PROCEDURE_DETAILS: Compound was tested for its half life in rat
Format: ADME, organism-based
MEASUREMENT_SETUP: in vivo
Reported half-life values follow for various compounds
Report the value in h with no unit label.

These recorded examples may help you get a feel for the data.
O=C(c1ccc2oc(-c3cncc(Cn4cc(C(F)(F)F)ccc4=O)c3)cc2c1)N1CCC(N2C(=O)OCc3ccccc32)CC1 ... 1.4
O=C(Cn1cc(C(F)(F)F)ccc1=O)NCc1cc2cc(C(=O)N3CCC(N4C(=O)OCc5ccccc54)CC3)ccc2o1 ... 1
O=C(Cn1cnc(C(F)(F)F)cc1=O)NCc1cc2cc(C(=O)N3CCC(N4C(=O)OCc5ccccc54)CC3)ccc2o1 ... 0.8
O=C(Cn1cc(C(F)(F)F)ccc1=O)NCc1cc2cc(C(=O)N3CCC(N4C(=O)OCc5cc(F)ccc54)CC3)ccc2o1 ... 0.9
O=C(c1ccc2oc(-c3cccc(Cn4cc(C(F)(F)F)ccc4=O)n3)cc2c1)N1CCC(N2C(=O)OCc3ccccc32)CC1 ... 1.2

Task: So what does the record say about half-life for "COc1cccn(CC(=O)NCc2cc3cc(C(=O)N4CCC(N5C(=O)OCc6ccccc65)CC4)ccc3o2)c1=O" ?
Output: 1.2

Task: So what does the record say about half-life for "O=C(c1ccc2oc(CN3CCC(n4cc(C(F)(F)F)ccc4=O)CC3)cc2c1)N1CCC(N2C(=O)OCc3ccccc32)CC1" ?
Output: 1.7

----------
PROCEDURE_DETAILS: Compound was tested for plasma clearance in rat
Format: ADME, organism-based
ASSAY_ENDPOINT: clearance (mL/min/kg)
Report the value in mL/min/kg with no unit label.

These recorded examples may help you get a feel for the data.
O=C(c1ccc2oc(-c3cncc(Cn4cc(C(F)(F)F)ccc4=O)c3)cc2c1)N1CCC(N2C(=O)OCc3ccccc32)CC1 ... 7
O=C(Cn1cnc(C(F)(F)F)cc1=O)NCc1cc2cc(C(=O)N3CCC(N4C(=O)OCc5ccccc54)CC3)ccc2o1 ... 20
O=C(Cn1cc(C(F)(F)F)ccc1=O)NCc1cc2cc(C(=O)N3CCC(N4C(=O)OCc5ccccc54)CC3)cnc2o1 ... 26

We next turn to a different compound, shown below.
Task: So what does the record say about clearance for "COc1cc(OC2CCN(C(C)=O)CC2)ccc1C(=O)N1CCC(N2C(=O)OCc3ccccc32)CC1" ?
Output: 51

----------
Reported pKi for target or system UniProt:P30559, by entry.
Sequence (P30559 whole entry): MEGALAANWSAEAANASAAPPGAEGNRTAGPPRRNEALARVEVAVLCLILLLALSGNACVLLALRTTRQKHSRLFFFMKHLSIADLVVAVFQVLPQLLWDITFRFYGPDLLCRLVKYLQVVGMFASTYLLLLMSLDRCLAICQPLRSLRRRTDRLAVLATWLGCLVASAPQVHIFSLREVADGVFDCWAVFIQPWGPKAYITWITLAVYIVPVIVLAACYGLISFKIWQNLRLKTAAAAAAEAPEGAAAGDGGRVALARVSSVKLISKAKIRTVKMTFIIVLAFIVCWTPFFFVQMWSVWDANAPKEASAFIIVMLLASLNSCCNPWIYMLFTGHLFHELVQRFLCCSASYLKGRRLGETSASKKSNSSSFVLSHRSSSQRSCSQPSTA
Answer as the number alone; pKi is minus log10 of concentration in mol/L.

O=C(Cn1cc(C(F)(F)F)ccc1=O)NCc1cc2cc(C(=O)N3CCC(N4C(=O)OCc5cccc(F)c54)CC3)ccc2o1 ... 8.10
O=C(Cn1cc(C(F)(F)F)ccc1=O)NCc1cc2cc(C(=O)N3CCC(N4C(=O)OCc5ccccc54)CC3)c(F)cc2o1 ... 8.10
COc1cc(OC2CCN(C(C)=O)CC2)ccc1C(=O)N1CCC(N2C(=O)OCc3ccccc32)CC1 ... 8.20
O=C(Cn1ccccc1=O)NCc1cc2cc(C(=O)N3CCC(N4C(=O)OCc5ccccc54)CC3)ccc2o1 ... 8.20
O=C(Cn1cc(C(F)(F)F)ccc1=O)NCc1cc2cc(C(=O)N3CCC(N4C(=O)OCc5c(F)cccc54)CC3)ccc2o1 ... 7.00
O=C(Cn1cc(C(F)(F)F)ccc1=O)NCc1cc2ccc(C(=O)N3CCC(N4C(=O)OCc5ccccc54)CC3)cc2o1 ... 7.00
O=C(Cn1ccc2ccccc2c1=O)NCc1cc2cc(C(=O)N3CCC(N4C(=O)OCc5ccccc54)CC3)ccc2o1 ... 8.20
CCOc1ccn(CC(=O)NCc2cc3cc(C(=O)N4CCC(N5C(=O)OCc6ccccc65)CC4)ccc3o2)c(=O)n1 ... 8.70

We next turn to a different compound, shown below.
Task: Write down the reported pKi of "O=C(Cn1cc(C(F)(F)F)ccc1=O)NCc1cc2cc(C(=O)N3CCC(N4C(=O)OCc5ccc(Cl)cc54)CC3)ccc2o1" , test system: UniProt:P30559.
Output: 8.50

Just for reference, ChEMBL document CHEMBL1135117 is where these values come from.
